- target_desc: Adenosine receptor A1 (Homo sapiens) (UniProt P30542)
- method_summary: Agonist activity at human adenosine A1 receptor expressed in CHOk1 cells assessed as potentiation of R-PIA-induced ERK1/2 phosphorylation at 3 uM
- Format: functional, cell-based
Calls of active or inactive are those of the source. The calls are words filed in the database; no cut-off is given here.
Hello, when you answer, please use one of the following outcomes: y for active, n for inactive

Example cases with answers are listed next.
>>> class_assignment("Nc1sc2c(c1C(=O)NNc1ccccc1)CCN(Cc1ccccc1)C2")
"n"
>>> class_assignment("CCOC(=O)c1c(N)sc2c1CCNC2")
"n"
>>> class_assignment("CN1CCc2c(sc(N)c2C(=O)O)C1")
"n"
>>> class_assignment("CN1CCc2c(sc(N)c2C(=O)NCc2ccccc2)C1")
"n"
>>> class_assignment("N#Cc1c(N)sc2c1CCN(Cc1ccccc1)C2")
"n"
>>> class_assignment("CN1CCc2c(sc(N)c2C(=O)NCc2cccc(Cl)c2)C1")
"n"

// outcome(item) with item = "Nc1sc2c(c1C(=O)c1ccc(Cl)cc1)CCN(Cc1ccccc1)C2"
y

* * *

- target_desc: Adenosine receptor A1 (Homo sapiens) (UniProt P30542)
- method_summary: Allosteric modulatory activity at human adenosine A1 receptor expressed in CHOk1 cells assessed as [125I]-ABA-receptor-G protein ternary complex remaining after 10 mins of radioligand dissociation at 50 uM by dissociation kinetic binding assay
- Format: cell-based
measured_attribute: Activity (%)

# annotated cases, reported Activity shown
>>> readout_number("CC(C)(C)OC(=O)N1CCc2c(sc(N)c2C#N)C1")
22.9
>>> readout_number("Nc1sc2c(c1C(=O)NCc1cccc(C(F)(F)F)c1)CCN(Cc1ccccc1)C2")
46.9
>>> readout_number("CCOC(=O)c1c(N)sc2c1CCN(C)C2")
14.9
>>> readout_number("Nc1sc2c(c1C(=O)O)CCN(Cc1ccccc1)C2")
68.3
>>> readout_number("CN1CCc2c(sc(N)c2C(N)=O)C1")
19.8

A = NC(=O)c1c(N)sc2c1CCN(Cc1ccccc1)C2
B = CCOC(=O)c1c(N)sc2c1CCN(C(=O)OC(C)(C)C)C2
C = CN1CCc2c(sc(N)c2C(=O)NCc2cccc(Cl)c2)C1
D = Nc1sc2c(c1C(=O)NNc1ccccc1)CCN(Cc1ccccc1)C2
rank_up(items): orders items by reported Activity in ascending numerical order. Order the labels as requested and list them.
A, B, D, C

* * *

- target_desc: Adenosine receptor A1 (Homo sapiens) (UniProt P30542)
- method_summary: Agonist activity at human adenosine A1 receptor expressed in CHOk1 cells assessed as potentiation of R-PIA-induced ERK1/2 phosphorylation at 10 uM
- Format: functional, cell-based
Calls of active or inactive are those of the source. The rule behind the calls is not given here.
Hello, when you answer, please use one of the following outcomes: t for active, f for inactive

>>> class_assignment("CCOC(=O)c1c(N)sc2c1CCN(C(=O)[C@H](Cc1ccccc1)NC(=O)OC(C)(C)C)C2")
"f"

// outcome(item) with item = "NC(=O)c1c(N)sc2c1CCN(Cc1ccccc1)C2"
f

// outcome(item) with item = "CCOC(=O)c1c(N)sc2c1CCN(C)C2"
f

// outcome(item) with item = "CN1CCc2c(sc(N)c2C(=O)NN)C1"
f

// outcome(item) with item = "Nc1sc2c(c1C(=O)NCc1ccccc1)CCN(Cc1ccccc1)C2"
f

* * *

- target_desc: UniProt P30542
- method_summary: Allosteric modulatory activity at human adenosine A1 receptor expressed in CHOk1 cells assessed as [125I]-ABA-receptor-G protein ternary complex remaining after 10 mins of radioligand dissociation at 50 uM by dissociation kinetic binding assay
- Assay type: cell-based
measured_attribute: Activity (%)

>>> readout_number("Nc1sc2c(c1C(=O)c1ccc(Cl)cc1)CCN(Cc1ccccc1)C2")
32.6

I = Nc1sc2c(c1C(=O)NCc1cccc(Cl)c1)CCN(Cc1ccccc1)C2
II = CN1CCc2c(sc(N)c2C(=O)O)C1
Between I and II , whose recorded Activity is greater? Pick one and reply with its label.
II
(II: 77.1%, I: 36%)

* * *

- target_desc: Adenosine receptor A1 (Homo sapiens)
- Sequence (P30542 whole entry): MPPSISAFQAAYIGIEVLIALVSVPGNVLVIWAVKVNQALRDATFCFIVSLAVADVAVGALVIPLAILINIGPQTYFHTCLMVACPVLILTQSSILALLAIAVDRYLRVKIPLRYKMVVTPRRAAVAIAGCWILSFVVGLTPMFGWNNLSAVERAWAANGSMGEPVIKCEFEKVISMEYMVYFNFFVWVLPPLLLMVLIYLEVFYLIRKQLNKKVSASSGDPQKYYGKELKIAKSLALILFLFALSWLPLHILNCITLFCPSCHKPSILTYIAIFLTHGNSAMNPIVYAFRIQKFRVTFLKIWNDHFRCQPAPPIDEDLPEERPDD
- method_summary: Allosteric modulatory activity at human adenosine A1 receptor expressed in CHOk1 cells assessed as drug level causing half maximal allosteric effect on [125I]-ABA dissociation from receptor-G protein ternary complex by dissociation kinetic binding assay
measured_attribute: EC50 (µM)

>>> readout_number("CN1CCc2c(sc(N)c2C(=O)NNc2ccccc2)C1")
11.5
>>> readout_number("Nc1sc2c(c1C(=O)NCc1ccccc1)CCN(Cc1ccccc1)C2")
13.1
>>> readout_number("CCOC(=O)c1c(N)sc2c1CCN(C(=O)[C@@H](Cc1ccc(Cl)cc1)N(C)C(=O)OC(C)(C)C)C2")
9.1
>>> readout_number("CCOC(=O)c1c(N)sc2c1CCN(C(=O)[C@H](CSC(c1ccccc1)(c1ccccc1)c1ccccc1)NC(=O)OC(C)(C)C)C2")
7.9
>>> readout_number("CN1CCc2c(sc(N)c2C(=O)O)C1")
11.6
>>> readout_number("CN1CCc2c(sc(N)c2C(=O)NCc2ccccc2)C1")
12
>>> readout_number("Nc1sc2c(c1C(=O)O)CCN(Cc1ccccc1)C2")
8
>>> readout_number("CCOC(=O)c1c(N)sc2c1CCNC2")
11.7
>>> readout_number("N#Cc1c(N)sc2c1CCN(Cc1ccccc1)C2")
15.2
>>> readout_number("CC(C)(C)OC(=O)N1CCc2c(sc(N)c2C(=O)O)C1")
12.1

P = CCOC(=O)c1c(N)sc2c1CCN(C(=O)[C@H](Cc1ccccc1)NC(=O)OC(C)(C)C)C2
Q = Nc1sc2c(c1C(=O)NCc1cccc(C(F)(F)F)c1)CCN(Cc1ccccc1)C2
R = CCOC(=O)c1c(N)sc2c1CCN(Cc1ccccc1)C2
S = CN1CCc2c(sc(N)c2C(=O)NN)C1
Parameters: sort_field (EC50), sort_dir (desc). Order the labels as requested and list them.
Q, R, P, S

* * *

- target_desc: Adenosine receptor A1 (Homo sapiens) (UniProt P30542)
- method_summary: Allosteric modulatory activity at human adenosine A1 receptor expressed in CHOk1 cells assessed as [125I]-ABA-receptor-G protein ternary complex remaining after 10 mins of radioligand dissociation at 50 uM by dissociation kinetic binding assay
- Type: cell-based
measured_attribute: Activity (%)

>>> readout_number("CCOC(=O)c1c(N)sc2c1CCN(C(=O)[C@H](CSC(c1ccccc1)(c1ccccc1)c1ccccc1)NC(=O)OC(C)(C)C)C2")
93.2
>>> readout_number("CC(C)(C)OC(=O)N1CCc2c(sc(N)c2C(=O)O)C1")
66.1

A = CN1CCc2c(sc(N)c2C(=O)NN)C1
B = CN1CCc2c(sc(N)c2C#N)C1
Given the two records A and B , choose the one whose Activity value is lower. Pick one and reply with its label.
B
(B: 14.8%, A: 85.7%)

* * *

- target_desc: Adenosine receptor A1 (Homo sapiens)
- Sequence (whole entry): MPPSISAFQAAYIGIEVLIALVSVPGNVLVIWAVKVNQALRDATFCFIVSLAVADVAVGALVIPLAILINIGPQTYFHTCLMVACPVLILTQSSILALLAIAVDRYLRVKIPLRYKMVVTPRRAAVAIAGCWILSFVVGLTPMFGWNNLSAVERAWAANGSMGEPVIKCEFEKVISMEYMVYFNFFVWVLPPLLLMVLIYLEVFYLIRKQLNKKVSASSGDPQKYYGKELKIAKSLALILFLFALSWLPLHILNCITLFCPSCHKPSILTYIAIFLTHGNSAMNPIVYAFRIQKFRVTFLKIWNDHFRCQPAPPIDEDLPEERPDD
- method_summary: Agonist activity at human adenosine A1 receptor expressed in CHOk1 cells assessed as potentiation of R-PIA-induced ERK1/2 phosphorylation at 10 uM
- Format: functional, cell-based
Active and inactive are the calls of the source. The calls are words filed in the database; no cut-off is given here.
Hello, when you answer, please use one of the following outcomes: true for active, false for inactive

>>> class_assignment("Nc1sc2c(c1C(=O)NCc1cccc(Cl)c1)CCN(Cc1ccccc1)C2")
"false"

// outcome(item) with item = "Nc1sc2c(c1C(=O)c1ccc(Cl)cc1)CCN(Cc1ccccc1)C2"
true

// outcome(item) with item = "Nc1sc2c(c1C(=O)O)CCN(Cc1ccccc1)C2"
false

// outcome(item) with item = "Nc1sc2c(c1C(=O)NCc1cccc(C(F)(F)F)c1)CCN(Cc1ccccc1)C2"
false

The measurements presented in this section are drawn from ChEMBL document CHEMBL1152610.
